Percent Effect by entry:
Organism: Homo sapiens
assay_overview: To identify inhibition of the IFN signalling (Jak-Stat) pathway via expression of an eGFP reporter gene under the control of an IFN-stimulated response element (ISRE) containing MxA promoter.
Type: functional
Set-up: scale not given: direction of the effect not stated beside the values
test_conditions: 30 µM
Quick reminder: number only, in %, skip the unit.

Task: For the compound CNc1nc(C)c(C(=O)N2CCCCC2CN2CCCCCC2)s1 (stereo unspecified) , give its reported Percent Effect.
Result: -1.85

Task: For the compound `O=C1CC[C@H]2CN(Cc3ccc(Cl)s3)CC[C@H]2N1CCc1c[nH]cn1` , give its reported Percent Effect.
Result: 34.2

Task: For the compound `Cc1ccc(C2(CN3CCCC3)CCNCC2)nc1` , give its reported Percent Effect.
Result: -11.7

Task: For the compound `CN(C)CC(=O)N1Cc2nc(C(=O)NCc3ccncc3)oc2C1` , give its reported Percent Effect.
Result: -9.53

Task: For the compound OCC1CCCCN1c1ccc(-c2nc(-c3ccccc3F)no2)cn1 (stereo unspecified) , give its reported Percent Effect.
Result: 1.31

* * *

Percent Effect by entry:
assayed_target: Chromo domain-containing protein 1 (Saccharomyces cerevisiae (strain ATCC 204508 / S288c) (Baker's yeast)) (UniProt P32657)
Sequence (P32657 whole entry, the tested form may be a part): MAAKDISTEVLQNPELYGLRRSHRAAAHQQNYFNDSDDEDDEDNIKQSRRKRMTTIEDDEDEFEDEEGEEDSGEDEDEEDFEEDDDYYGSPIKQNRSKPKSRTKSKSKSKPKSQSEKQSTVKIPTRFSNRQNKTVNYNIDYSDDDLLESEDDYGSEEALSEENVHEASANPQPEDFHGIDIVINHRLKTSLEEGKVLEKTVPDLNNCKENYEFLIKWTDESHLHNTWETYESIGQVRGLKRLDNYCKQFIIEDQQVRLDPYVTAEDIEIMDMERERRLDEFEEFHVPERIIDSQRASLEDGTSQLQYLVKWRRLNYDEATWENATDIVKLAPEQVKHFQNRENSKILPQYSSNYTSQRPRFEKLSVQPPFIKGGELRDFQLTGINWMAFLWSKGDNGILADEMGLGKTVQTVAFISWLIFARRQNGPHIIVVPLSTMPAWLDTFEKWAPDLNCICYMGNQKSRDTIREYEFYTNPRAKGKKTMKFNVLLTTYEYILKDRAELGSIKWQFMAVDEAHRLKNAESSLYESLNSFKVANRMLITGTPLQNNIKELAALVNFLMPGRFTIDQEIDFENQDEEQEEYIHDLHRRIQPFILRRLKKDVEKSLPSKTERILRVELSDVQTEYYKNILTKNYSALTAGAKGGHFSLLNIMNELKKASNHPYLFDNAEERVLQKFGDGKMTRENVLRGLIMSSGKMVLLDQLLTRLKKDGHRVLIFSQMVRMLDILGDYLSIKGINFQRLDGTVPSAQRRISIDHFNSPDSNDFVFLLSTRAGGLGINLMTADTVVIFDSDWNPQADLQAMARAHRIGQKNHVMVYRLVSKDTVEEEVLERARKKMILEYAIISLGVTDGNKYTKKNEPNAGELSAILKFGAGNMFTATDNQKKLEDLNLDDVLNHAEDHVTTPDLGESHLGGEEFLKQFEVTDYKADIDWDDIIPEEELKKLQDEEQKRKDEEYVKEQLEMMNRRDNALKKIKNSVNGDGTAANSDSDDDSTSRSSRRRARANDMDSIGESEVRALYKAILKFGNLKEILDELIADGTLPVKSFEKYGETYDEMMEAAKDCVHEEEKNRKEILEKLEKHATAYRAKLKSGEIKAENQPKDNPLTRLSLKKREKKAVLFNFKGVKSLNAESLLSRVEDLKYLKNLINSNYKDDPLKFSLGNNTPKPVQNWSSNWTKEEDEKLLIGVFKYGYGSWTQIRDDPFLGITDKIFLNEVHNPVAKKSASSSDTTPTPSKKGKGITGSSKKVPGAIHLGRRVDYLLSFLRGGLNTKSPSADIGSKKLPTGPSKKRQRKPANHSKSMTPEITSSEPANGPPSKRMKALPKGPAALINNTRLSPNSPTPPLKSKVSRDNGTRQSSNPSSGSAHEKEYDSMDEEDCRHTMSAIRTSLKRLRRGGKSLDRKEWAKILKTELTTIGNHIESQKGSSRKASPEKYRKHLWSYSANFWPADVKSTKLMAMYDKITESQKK
assay_overview: ScCHD-1 Enzyme Inhibition Assay; note: in the data most compounds retested in dose-response had high values
Assay type: functional
Parameters: scale not given: direction of the effect not stated beside the values
test_conditions: 30 µM
Quick reminder: number only, in %, skip the unit.

CCC(CNC(=O)c1ccc(Br)o1)N1CCc2ccccc2C1 (stereo not drawn)
-2.21
Cc1nc(C2CCCN2Cc2ncc(C(C)C)o2)no1 (stereo not drawn)
-7.52
C=Cn1ncc(CN2C[C@@H]3CCCN3C[C@H]2CCSC)c1C
-6.62
Cc1nc(C)c(C(=O)N2CCCC2c2nnc3n2CCCCC3)s1 (stereo not drawn)
-0.436
Cc1cnn(CC2CCCN2Cc2coc(-c3cccs3)n2)c1 (stereo not drawn)
-1.19
Cn1ccnc1CN1CCN(CCOc2ccccc2C#N)CC1
-1.99
CCc1nc(C2CCCN2Cc2nc3ccccc3o2)no1 (stereo not drawn)
2.53
CCCN1CCC(NC(=O)NCCc2nc(CC)c(C)s2)CC1
-9.25

Task: For the compound O=C(NCc1cc[nH]n1)N(CCCO)C1CCc2ccccc21 (stereo not drawn) , give its reported Percent Effect.
Result: -7.56

Task: For the compound CCc1nc(CC(=O)Nc2cnn(CC3CCCO3)c2)cs1 (stereo not drawn) , give its reported Percent Effect.
Result: -1.6

Task: For the compound `CCCn1nc2c(cc1=O)CN(CC(=O)Nc1ccncc1)CC2` , give its reported Percent Effect.
Result: -14.2

Task: For the compound `COc1ccc(CN2C[C@H]3CN(c4ccsc4)C(=O)[C@H]3C2)cc1` , give its reported Percent Effect.
Result: -1.59

Task: For the compound O=C(c1cc(Cl)c2c(c1)OCO2)N1CCCC(n2ccnc2)C1 (stereo not drawn) , give its reported Percent Effect.
Result: -5.15

Task: For the compound `Cc1ccc(NC(=O)c2cc(S(=O)(=O)N3CCCCC3)c[nH]2)cc1F` , give its reported Percent Effect.
Result: -9.19

Task: For the compound `CN(C)CCN1C(=O)CCC12CCN(C(=O)c1cccnc1)CC2` , give its reported Percent Effect.
Result: -20.4

Task: For the compound CCC1CN(C(=O)c2ccc(Cl)cc2O)CCN1C(C)C (stereo not drawn) , give its reported Percent Effect.
Result: -3.73

Task: For the compound `Cc1cccc(C(=O)N2CCCN(Cc3cnn(C)c3)CC2)n1` , give its reported Percent Effect.
Result: -3.37

Task: For the compound `Cc1sc(NC(=O)CN(C)S(C)(=O)=O)c(C#N)c1C` , give its reported Percent Effect.
Result: -6.9
